Task for the reader: assign each of the following variants its reported protein stability index.
B1: VDR (parent)
chain: VTLELSQLSMLPHLADLVSYSIQK

variants of: B1; test: protein stability index of a GFP-peptide fusion (GPS, HEK-293T) (PSI 1-6); higher = more stable; conditions: c terminus: a fixed tail appended;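 note: lentivirally expressed fusions sorted by FACS into six bins by GFP to DsRed ratio, PSI derived from sequencing read proportions per bin multiplied by bin number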
Please give the numeric answer without any surrounding text.

Please give the measured protein stability index for this variant: L5N
1.93

Please give the measured protein stability index for this variant: I22H
2.34

Please give the measured protein stability index for this variant: L5D
2.1

Please give the measured protein stability index for this variant: A15L
3.63

Please give the measured protein stability index for this variant: L5T
2.04

Please give the measured protein stability index for this variant: A15E
1.85

Please give the measured protein stability index for this variant: Y20Q
3.29

Please give the measured protein stability index for this variant: I22R
2.12

Please give the measured protein stability index for this variant: M10A
2.73

Please give the measured protein stability index for this variant: I22K
1.72

Please give the measured protein stability index for this variant: K24L
1.86

Please give the measured protein stability index for this variant: Q23F
4.15

Please give the measured protein stability index for this variant: A15F
2.81

Please give the measured protein stability index for this variant: L14I
3.33

Please give the measured protein stability index for this variant: M10E
1.87

Please give the measured protein stability index for this variant: S19H
2.79

Please give the measured protein stability index for this variant: S21G
2.48

Please give the measured protein stability index for this variant: Q7E
3.06

Please give the measured protein stability index for this variant: Q7I
2.06

Please give the measured protein stability index for this variant: V18N
1.8

Please give the measured protein stability index for this variant: L11H
3.18

Please give the measured protein stability index for this variant: S6A
2.88

Please give the measured protein stability index for this variant: Q23W
1.56

Please give the measured protein stability index for this variant: I22T
1.87

Please give the measured protein stability index for this variant: T2V
3.63

Please give the measured protein stability index for this variant: L5G
2.07

Please give the measured protein stability index for this variant: L5I
3.82

Please give the measured protein stability index for this variant: S9P
1.97

Please give the measured protein stability index for this variant: L11Q
2.42

Please give the measured protein stability index for this variant: S9I
3.23

Please give the measured protein stability index for this variant: Q23S
2.05

Please give the measured protein stability index for this variant: Q23E
3.09

Please give the measured protein stability index for this variant: Y20I
3.08

Please give the measured protein stability index for this variant: Q23H
5.2

Please give the measured protein stability index for this variant: Y20H
3.24

Please give the measured protein stability index for this variant: I22N
2.32

Please give the measured protein stability index for this variant: H13P
2.69

Please give the measured protein stability index for this variant: L3F
1.95

Please give the measured protein stability index for this variant: S9R
3.06

Please give the measured protein stability index for this variant: Q23P
1.68

Please give the measured protein stability index for this variant: D16Y
2.31

Please give the measured protein stability index for this variant: S19I
2.76

Please give the measured protein stability index for this variant: S9M
3.43

Please give the measured protein stability index for this variant: L17W
3.14

Please give the measured protein stability index for this variant: Y20W
2.91

Please give the measured protein stability index for this variant: S19N
3.84

Please give the measured protein stability index for this variant: Q7G
1.33

Please give the measured protein stability index for this variant: S21W
3.16

Please give the measured protein stability index for this variant: D16E
4.21

Please give the measured protein stability index for this variant: Q7R
2.33

Please give the measured protein stability index for this variant: P12T
3.29

Please give the measured protein stability index for this variant: V18E
1.73

Please give the measured protein stability index for this variant: S19E
2.05

Please give the measured protein stability index for this variant: M10T
2.87

Please give the measured protein stability index for this variant: M10K
1.69

Please give the measured protein stability index for this variant: L14P
1.85

Please give the measured protein stability index for this variant: Q7T
3.45

Please give the measured protein stability index for this variant: E4Y
2.58

Please give the measured protein stability index for this variant: I22M
3.49

Please give the measured protein stability index for this variant: E4C
3.83

Please give the measured protein stability index for this variant: S21N
3.47

Please give the measured protein stability index for this variant: M10W
3.71

Please give the measured protein stability index for this variant: I22A
1.56

Please give the measured protein stability index for this variant: L11A
1.62

Please give the measured protein stability index for this variant: V1E
1.9

Please give the measured protein stability index for this variant: V18T
1.49

Please give the measured protein stability index for this variant: P12G
2.02

Please give the measured protein stability index for this variant: K24A
2.14

Please give the measured protein stability index for this variant: S19C
2.33

Please give the measured protein stability index for this variant: A15S
2.73

Please give the measured protein stability index for this variant: H13S
2.57

Please give the measured protein stability index for this variant: L3T
1.97

Please give the measured protein stability index for this variant: Y20T
2.31

Please give the measured protein stability index for this variant: D16W
2.26

Please give the measured protein stability index for this variant: Y20P
2.3

Please give the measured protein stability index for this variant: A15R
2.64

Please give the measured protein stability index for this variant: L8R
2.25

Please give the measured protein stability index for this variant: H13W
1.99

Please give the measured protein stability index for this variant: I22Q
2.74

Please give the measured protein stability index for this variant: S19W
3.07

Please give the measured protein stability index for this variant: S19A
2.23

Please give the measured protein stability index for this variant: L3D
2.09

Please give the measured protein stability index for this variant: Q23Y
1.97

Please give the measured protein stability index for this variant: S21M
1.43

Please give the measured protein stability index for this variant: A15V
3.02

Please give the measured protein stability index for this variant: T2G
1.76

Please give the measured protein stability index for this variant: D16G
1.67

Please give the measured protein stability index for this variant: M10H
2.76

Please give the measured protein stability index for this variant: L3P
2.49

Please give the measured protein stability index for this variant: K24Q
3.06

Please give the measured protein stability index for this variant: L17S
1.6
